Assay info: clinical
Applied conditions: human, plasma, intravenous
Experimental readout: Tmax

- Compound: "CC(=O)O[C@H]1C(=O)[C@@]2(C)[C@H]([C@H](OC(=O)c3ccccc3)[C@]3(O)C[C@H](OC(=O)[C@H](O)[C@@H](NC(=O)c4ccccc4)c4ccccc4)C(C)=C1C3(C)C)[C@]1(OC(C)=O)CO[C@@H]1C[C@@H]2O [paclitaxel]"
  Experimental readout: "Tmax"
  Observed: "1 h"

----------
Assay info: clinical
Applied conditions: human, plasma, intravenous

- Mol smiles: "CC(=O)O[C@H]1C(=O)[C@@]2(C)[C@H]([C@H](OC(=O)c3ccccc3)[C@]3(O)C[C@H](OC(=O)[C@H](O)[C@@H](NC(=O)c4ccccc4)c4ccccc4)C(C)=C1C3(C)C)[C@]1(OC(C)=O)CO[C@@H]1C[C@@H]2O"
  clearance: "283 to 800 mL/min"

These entries and their values trace back to paper PMC3155243.
